- system_tested: Thyrotropin-releasing hormone receptor (Homo sapiens) (UniProt P34981)
- Sequence (P34981 whole entry, looked up): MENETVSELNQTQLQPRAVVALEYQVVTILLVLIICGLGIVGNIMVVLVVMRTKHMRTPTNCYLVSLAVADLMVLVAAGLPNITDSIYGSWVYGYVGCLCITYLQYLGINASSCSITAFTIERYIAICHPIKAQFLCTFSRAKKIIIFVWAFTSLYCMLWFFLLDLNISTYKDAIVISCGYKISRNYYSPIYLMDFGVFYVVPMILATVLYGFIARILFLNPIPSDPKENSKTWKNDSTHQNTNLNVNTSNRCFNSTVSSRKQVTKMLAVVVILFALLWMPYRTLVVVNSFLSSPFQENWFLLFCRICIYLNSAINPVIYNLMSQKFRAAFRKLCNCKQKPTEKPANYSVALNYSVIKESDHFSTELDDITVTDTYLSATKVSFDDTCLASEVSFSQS
- method: qHTS assay to identify small molecule agonists of the thyrotropin-releasing hormone receptor (TRHR) signaling pathway (AID 1346891);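 also: HEK293 cells expressing TRHR with calcium dye readout; % is scaled to controls: 0 for no effect and ±100 for the full control effect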
- measurement_parameters: TRHR-HEK293 calcium fluorescence, agonist mode; series mostly up to 57.6 µM
The source made the active and inactive calls. Calls follow the shape of the full dose curve.
measured_endpoint: activation

Answered examples (4):
                                   compound  measured_endpoint  test_value
0          Nc1cc(C(=O)O)c(O)c(S(=O)(=O)O)c1         activation    inactive
1                         CC/C=C\CCOC(=O)CC         activation    inactive
2  OC(CN1CCC(Cc2ccc(F)cc2)CC1)c1ccc(Cl)cc1 (stereo not given)         activation    inactive
3  Cc1nn(C)c(Oc2ccccc2)c1/C=N/OCc1ccc(C(=O)OC(C)(C)C)cc1         activation    inactive

Query: Identify the reported activation for the following entry. COC(C)OC
Response: inactive

Query: Fill in reported activation for this entry: O=C(O)c1ccco1
Response: inactive

Query: Name the recorded activation of the compound listed here: CCCCCCCCCCCC(=O)OC[C@@H](O)[C@H]1OC[C@H](OCCO)[C@H]1OCCO
Response: inactive

Query: Quickly give me recorded activation for C/C(=C(\CCOP(=O)(O)O)SC(=O)c1ccccc1)N(C=O)Cc1cnc(C)nc1N
Response: -0.266% [at 5.23 µM] (inactive)

Taken from PubChem BioAssay (Tox21).
